assay-notes: 14-day oral gavage toxicokinetic study in rats
Format: in vivo
run-parameters: both sexes, rat, plasma, po, 2 mg/kg, Mean Compound 1 Plasma Concentration, rats, oral 2 mg/kg, Day 14, 24 h, Overall
Procedure: Plasma was obtained from blood samples collected from rats in a composite sampling scheme, with 3 samples collected per sex, per dose, at each target collection time, as illustrated in Table 21 to Table 25. […] The following parameters were determined: […] A value of 0 ng/mL was assigned to all values below the lower limit of quantitation (BLQ, <10.0 ng/mL). […] CL: Clearance (L/h/kg), calculated as the dose divided by AUC(0-t). […] Cmax/Dose: Normalized Cmax, calculated as Cmax divided by total dose. […]
assay-endpoint: concentration at 24 h (ng/mL)

> print(dat)
                                chem.smiles  recorded.result
1  CN1CCN(c2ccc(Nc3ncc4cc5n(c4n3)C3(CCCCC3)CNC5=O)nc2)CC1             4.32

---

assay-notes: 14-day oral gavage toxicokinetic study in rats
Assay type: in vivo
run-parameters: male, rat, plasma, po, 15 mg/kg, Individual Compound 1 Plasma Concentration, rats, daily oral 15 mg/kg, Day 1, Male, […]
assay-endpoint: concentration at […]

> print(dat)
                                   compound  recorded.result
1  CN1CCN(c2ccc(Nc3ncc4cc5n(c4n3)C3(CCCCC3)CNC5=O)nc2)CC1 [Compound 1]       49.7 ng/mL

---

assay-notes: 14-day oral gavage toxicokinetic study in rats
Assay type: in vivo
run-parameters: female, rat, plasma, po, 30 mg/kg, Individual Compound 1 Plasma Concentration, rats, daily oral 30 mg/kg, Day 14, Female, 8 h
assay-endpoint: concentration at 8 h (ng/mL)

> print(dat)
                                chem.smiles  recorded.result
1  CN1CCN(c2ccc(Nc3ncc4cc5n(c4n3)C3(CCCCC3)CNC5=O)nc2)CC1             1970

---

assay-notes: Repeat-dose toxicity in rats (IV 7 days, oral 14 days)
Format: in vivo
run-parameters: rat, in vivo, IV, read-out: NOAEL for IV administration
assay-endpoint: NOAEL at 7 days (mg/kg)

> print(dat)
                                   compound  units.label  recorded.result
1  CN1CCN(c2ccc(Nc3ncc4cc5n(c4n3)C3(CCCCC3)CNC5=O)nc2)CC1 [Compound 1]        mg/kg               10

---

assay-notes: Nonclinical IV and oral pharmacokinetics in dogs
Assay type: in vivo
run-parameters: both sexes, dog, plasma, after IV administration
assay-endpoint: half-life

> print(dat)
                                   molecule  recorded.result
1  CN1CCN(c2ccc(Nc3ncc4cc5n(c4n3)C3(CCCCC3)CNC5=O)nc2)CC1 [Compound 1]             ~4 h

---

assay-notes: 14-day oral gavage toxicokinetic study in rats
Type: in vivo
run-parameters: both, rat, plasma, po, 5 mg/kg, Mean Compound 1 Plasma Concentration, rats, oral 5 mg/kg, Day 1, […], Overall
assay-endpoint: concentration at […] (ng/mL)

> print(dat)
                                chem.smiles  units.label  recorded.result
1  CN1CCN(c2ccc(Nc3ncc4cc5n(c4n3)C3(CCCCC3)CNC5=O)nc2)CC1        ng/mL             20.8
